The reported measurements were obtained from patent US12180192B2.

Measured Emax, listed per entry.
SYSTEM_NAME: THR alpha (Homo sapiens)
Construct: expressed in transfected cells; host or cells: HEK293T (ATCC CRL-3216)
Sequence (P10827 1-410 isoform P10827-2): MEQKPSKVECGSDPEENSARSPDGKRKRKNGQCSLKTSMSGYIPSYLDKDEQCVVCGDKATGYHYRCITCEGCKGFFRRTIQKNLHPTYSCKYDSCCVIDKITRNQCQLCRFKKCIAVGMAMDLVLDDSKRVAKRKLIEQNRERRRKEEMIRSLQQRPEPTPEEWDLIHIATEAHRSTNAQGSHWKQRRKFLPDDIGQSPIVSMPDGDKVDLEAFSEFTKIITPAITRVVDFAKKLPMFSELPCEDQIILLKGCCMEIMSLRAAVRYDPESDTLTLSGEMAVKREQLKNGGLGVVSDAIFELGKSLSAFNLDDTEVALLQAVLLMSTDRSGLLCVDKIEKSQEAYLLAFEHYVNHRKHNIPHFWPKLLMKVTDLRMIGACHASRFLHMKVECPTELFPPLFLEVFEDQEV
Sequence (P19793 whole entry partner): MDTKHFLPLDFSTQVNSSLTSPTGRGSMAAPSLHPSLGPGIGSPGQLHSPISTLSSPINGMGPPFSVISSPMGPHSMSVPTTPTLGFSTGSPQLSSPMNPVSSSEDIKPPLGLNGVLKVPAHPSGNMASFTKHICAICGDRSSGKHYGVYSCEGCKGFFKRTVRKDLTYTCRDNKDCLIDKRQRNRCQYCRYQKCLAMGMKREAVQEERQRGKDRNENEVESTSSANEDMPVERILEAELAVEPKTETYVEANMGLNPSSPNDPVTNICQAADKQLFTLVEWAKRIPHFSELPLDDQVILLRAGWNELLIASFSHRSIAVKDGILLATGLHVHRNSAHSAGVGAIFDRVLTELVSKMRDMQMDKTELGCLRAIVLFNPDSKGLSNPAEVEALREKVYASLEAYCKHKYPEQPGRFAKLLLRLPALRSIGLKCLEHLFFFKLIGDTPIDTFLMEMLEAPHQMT
ASSAY_NAME: HEK293T THR alpha/RXR luciferase reporter assay (Assay 2)
Format: cell-based
MEASUREMENT_CONTEXT: HEK-293T, Table 5; Assay 2; THRα; read-out: Activity category Assay 2 THRα (Emax)
PROPERTY_MEASURED: Emax

O=c1cnn(-c2cc(Cl)c(Oc3cc(-c4ccc5c(c4)CCCC5)c(=O)[nH]n3)c(Cl)c2)c(=O)[nH]1 [Compound 91] | < 50%
CO[C@H]1C[C@H](c2cc(Oc3c(Cl)cc(-n4nc(N)c(=O)[nH]c4=O)cc3Cl)n[nH]c2=O)C1 [Compound 102] | < 50%
CC(C)c1cc(Oc2c(Cl)cc(-c3nn(C(F)F)c(=O)[nH]c3=O)cc2Cl)n[nH]c1=O [Compound 28] | 50 to 75%
Nc1nn(-c2cc(Cl)c(Oc3cc(C4CCc5ccccc54)c(=O)[nH]n3)c(Cl)c2)c(=O)[nH]c1=O (stereo not drawn) [Compound 156] | < 50%
CC(C)Cc1c[nH]c2ccc(Oc3c(Cl)cc(-n4nc(C#N)c(=O)[nH]c4=O)cc3Cl)cc12 [Compound 49] | < 50%
CO[C@H]1C[C@@H](c2cc(Oc3c(Cl)cc(-n4nc(N)c(=O)[nH]c4=O)cc3Cl)n[nH]c2=O)C1 [Compound 103] | < 50%
Cc1cc(-n2nc(N)c(=O)[nH]c2=O)cc(C)c1Cc1ccc2[nH]c(=O)n(C(C)C)c2c1 [Compound 149] | > 75%
Cc1cc(-n2ncc(=O)[nH]c2=O)cc(C)c1Cc1ccc2[nH]cc(C(C)C)c2n1 [Compound 54] | 50 to 75%
Nc1nn(-c2cc(Cl)c(Oc3cc(C4(c5ccccc5)CC4)c(=O)[nH]n3)c(Cl)c2)c(=O)[nH]c1=O [Compound 107] | < 50%
